# Target Or Test System: OsWRKY34 (Oryza sativa, UniProt Q0JBA9 1-250)
# Sequence (Q0JBA9 entry or part of it): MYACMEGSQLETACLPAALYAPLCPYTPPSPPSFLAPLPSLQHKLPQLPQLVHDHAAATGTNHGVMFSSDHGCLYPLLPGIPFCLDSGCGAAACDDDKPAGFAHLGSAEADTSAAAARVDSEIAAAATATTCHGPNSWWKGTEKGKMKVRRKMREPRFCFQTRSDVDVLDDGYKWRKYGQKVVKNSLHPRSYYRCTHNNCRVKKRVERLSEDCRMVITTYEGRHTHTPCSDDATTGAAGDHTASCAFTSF
# Assay Notes: protein-binding microarray (RPBM); PBS, 2% BSA, 51.3 ng/ul salmon testes DNA, 50 uM zinc acetate, 200 nM TF, 25 C, 1 h; high values mean tight binding
# Measurement Parameters: protein: recombinant; tags: N-terminal polyhistidine and DsRed monomer fusion (pET32a); label: CyDye5-dUTP incorporated in the synthesized complementary strand; 3' TTTTT single-stranded linker to array surface; dsDNA, one strand shown
Whole data set: some 68,000 sequences, median “fluorescence intensity (a.u.)” near 9,100, cut for the highest 2% near 16,000. The entries come from a sample that favours the highest values as a whole.
Recorded Endpoint: binding signal

input: Query binding signal on OsWRKY34 (Oryza sativa, UniProt Q0JBA9 1-250) for AGATAGTGGTGGTGGTCTGTGCATCGTTGACTTGATCATGCGGAGTCACCTAGTGCAG
output: 10900 fluorescence intensity (a.u.)

input: Quick check: binding signal on OsWRKY34 (Oryza sativa, UniProt Q0JBA9 1-250), item GCAAACTTTATTGCTCCGCGTTCTTCCTTTCTCTGTGTTTCGGAGTCACCTAGTGCAG ?
output: 8910 fluorescence intensity (a.u.)

input: For OsWRKY34 (Oryza sativa, UniProt Q0JBA9 1-250), provide binding signal of AGGAGATGCGGTAGTTTTTTTGGTACTGCGTGCGGTGGGGCGGAGTCACCTAGTGCAG please.
output: 8400 fluorescence intensity (a.u.)

input: Query for OsWRKY34 (Oryza sativa, UniProt Q0JBA9 1-250): what binding signal does the record show for TCATTGCTCTCTGTGTTTCTCCGCTATGCCGCCACGTCTTCGGAGTCACCTAGTGCAG ?
output: 16700 fluorescence intensity (a.u.)

input: Missing value: binding signal, OsWRKY34 (Oryza sativa, UniProt Q0JBA9 1-250), entry ACCCACCACAACCAGTGATCAGACACCACCTACCGCGCGCCGGAGTCACCTAGTGCAG . Fill in?
output: 8330 fluorescence intensity (a.u.)

input: Under OsWRKY34 (Oryza sativa, UniProt Q0JBA9 1-250): binding signal value of GTTTGCATGTTAAGCTTTAGGATTTGGTGGGTTATAATTTCGGAGTCACCTAGTGCAG ?
output: 10800 fluorescence intensity (a.u.)

input: Provide value of binding signal for this record tested with OsWRKY34 (Oryza sativa, UniProt Q0JBA9 1-250): GCACCGGCGCCACCGCCCGCGCCCGCACCACCGCCCACGCCGGAGTCACCTAGTGCAG
output: 8870 fluorescence intensity (a.u.)
